compounds and their reported drug sensitivity score
System: Vero E6
Experiment: drug sensitivity score (DSS) for viability; higher = more toxic; extreme values may be limits of the assay
Conditions: 72 h
observed-property: drug sensitivity score

Cc1nn(C)c2c1C(c1cccc(Cl)c1)=NCCN2 | 0
Cc1cc(C2CCCCC2)n(O)c(=O)c1 | 2.7
CCc1cnn2c(NCc3ccc[n+]([O-])c3)cc(N3CCCC[C@H]3CCO)nc12 | 27.5
O=C(CN1CCN(Cc2ccc3c(c2)OCO3)CC1)N1c2ccccc2Sc2ccccc21 | 0
Cc1[nH]cnc1-c1ccc(Cl)cc1 | 0
O=C(NC1CCNCC1)c1n[nH]cc1NC(=O)c1c(Cl)cccc1Cl | 0
CSCC[C@H](NC(=O)[C@H](Cc1ccccc1)NC(=O)CNC(=O)CNC(=O)[C@@H](N)Cc1ccc(O)cc1)C(=O)O | 0
CC(C)n1cnc2c(NCCc3ccc(O)cc3)nc(-c3csc4ccccc34)nc21 | 0.2
CCN(CC)CCNC(=O)c1cc(S(C)(=O)=O)ccc1OC [tiapride] | 0
Cc1ccc(-c2ccc(C)cn2)nc1 | 0
Cc1ccc(OC[C@@H](O)[C@H](C)NC(C)C)c2c1CCC2 (racemic) | 0

###

System: Vero E6
Assay: cell viability relative to DMSO; higher = less toxic
Conditions: 72 h; 1 nM
observed-property: cell viability (%)

CC(C)C[C@H](NC(=O)[C@@H]1CCCN1)C(=O)NCC(N)=O [prolylleucylglycinamide] | 102
O=C(CN1CCN(Cc2ccc3c(c2)OCO3)CC1)N1c2ccccc2Sc2ccccc21 | 87.4
Nc1ncn([C@H]2C[C@H](O)[C@@H](CO)O2)c(=O)n1 | 103
CCNC(=O)/C=C/c1cccc(Br)c1 [cinromide] | 110
COc1ccccc1S(=O)(=O)Nc1ccc2c(c1)CN(C)C(=O)N2 | 102

###

compounds and their reported cell viability
Test system: U2OS
Experiment: cell viability relative to DMSO; higher = less toxic
Details: 72 h; 1000 nM
observed-property: cell viability (%)

CCCCCCCC/C=C/C(=O)O [trans-2-undecenoic-acid] | 100
CN1C(=O)N(c2cc(Cl)cc(Cl)c2)C(=O)[C@]12CN(Cc1cc(C(=O)O)cs1)C[C@H]2c1ccc(C#N)cc1 | 103
c1ccc(-c2oc3ncnc(NC[C@@H]4CCCO4)c3c2-c2ccccc2)cc1 [AIM-100] | 101
O=C(NCCCN1CCOCC1)c1ccc(Cl)cc1 [eprobemide] | 97.4
CCCN1CCO[C@@H]2c3cc(O)ccc3OC[C@H]21 | 102

###

Tested on: Caco-2
Experiment: cell viability relative to DMSO; higher = less toxic
Details: 72 h; 1 nM
compounds and their reported cell viability
observed-property: cell viability (%)

CC1(C)S[C@@H]2[C@H](NC(=O)[C@H](NC(=O)N3CCNC3=O)c3ccccc3)C(=O)N2[C@H]1C(=O)O | 105
COc1ccn2ncc(-c3nc4[nH]nc(NC(=O)c5ccc(F)cc5)c4cc3F)c2c1 | 99.1
CNC(=O)[C@H]1O[C@@H](n2cnc3c(NCc4cccc(I)c4)ncnc32)[C@H](O)[C@@H]1O | 112
O=C(Nc1cc(Oc2cc(F)c(NC(=O)C3(C(=O)Nc4ccc(F)cc4)CC3)cc2F)ccn1)C1CC1 | 113

###

Tested on: Vero E6
Assay: drug sensitivity score (DSS) for viability; higher = more toxic; extreme values may be limits of the assay
Conditions: 72 h
observed-property: drug sensitivity score

CCc1c(O)cc(O)c(C(=O)c2ccc(OCCN3CCOCC3)c(OC)c2)c1CC(=O)N(CCOC)CCOC | 0
CCCCC/C=C\C/C=C\CCCCCCCC(=O)NCCCC(=O)O [GABA-linoleamide] | 0
COc1cc(/C=C/C(N)=O)cc(OC)c1OC [cintriamide] | 0
CN(C[C@@H]1COCCO1)S(=O)(=O)Nc1ccc2ccc3ncc(-c4cnn(C)c4)cc3c(=O)c2c1 | 3.1
COc1ccc(NS(=O)(=O)c2ccc(/N=N/c3ccc(O)c(C(=O)O)c3)cc2)nn1 | 0
COc1cc(C=O)ccc1O | 0
Clc1cccc(Cl)c1NC1=NCCN1 | 0
Oc1cc(O)c2c(c1)O[C@H](c1ccc(O)c(O)c1)[C@H](O)[C@H]2c1c(O)cc(O)c2c1O[C@H](c1ccc(O)c(O)c1)[C@H](O)C2 | 0
CN(CCCN1c2ccccc2CCc2ccccc21)CC(=O)c1ccc(Cl)cc1 | 0
C#Cc1cccc(Nc2ncnc3cc(OCCOC)c(OCCO)cc23)c1 | 4
CCC(=O)O[C@H](CC(=O)O)C[N+](C)(C)C [levocarnitine-propionate] | 0
Cc1cc(O)c(C(=O)N[C@@H](C(=O)N[C@@H]2C(=O)N3C(C(=O)O)=C(CSc4nnnn4C)CS[C@H]23)c2ccc(O)cc2)cn1 [cefpiramide] | 0
COc1ccc(/C=C\c2cc(OC)c(OC)c(OC)c2)cc1OP(=O)(O)O | 24.1
COc1ccc(CCO[C@@H]2CCCC[C@H]2N2CC[C@@H](O)C2)cc1OC | 0
O=C(O)[C@H](O)[C@@H](O)[C@H](O)[C@H](O)CO [sodium-gluconate] | 0
Cn1ccc2cc(NC(=O)Nc3cccnc3)ccc21 | 0
COc1cc2nc(N3CCC(N4CCCCC4)CC3)nc(NC3CCCCCC3)c2cc1OC | 5.9
C/C(=C\CNc1ncnc2[nH]cnc12)CO | 0

The measurements presented in this section are drawn from the supplement of paper PMC13380429.
